# ASSAYED TARGET: HIV-1 JR-CSF Env S334A (HIV-1 isolate JR-CSF) (UniProt P20871)
# TEST PROTOCOL: cell-based or functional assay
REPORTED METRIC: Fold IC50 increase relative to wild-type

binder="PGT-123 (antibody, V domains shown) VH: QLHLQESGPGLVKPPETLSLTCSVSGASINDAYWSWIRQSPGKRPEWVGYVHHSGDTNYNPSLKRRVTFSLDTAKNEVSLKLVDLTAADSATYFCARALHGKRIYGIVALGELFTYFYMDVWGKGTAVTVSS VL: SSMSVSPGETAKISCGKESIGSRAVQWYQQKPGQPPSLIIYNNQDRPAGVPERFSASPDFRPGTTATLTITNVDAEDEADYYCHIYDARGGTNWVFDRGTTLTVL" result="> 50 fold"
binder="PGT-135 (antibody, V domains shown) VH: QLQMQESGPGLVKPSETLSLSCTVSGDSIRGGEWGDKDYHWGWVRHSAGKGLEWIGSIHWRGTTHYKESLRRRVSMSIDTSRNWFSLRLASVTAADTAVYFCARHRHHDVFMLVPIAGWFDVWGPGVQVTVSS VL: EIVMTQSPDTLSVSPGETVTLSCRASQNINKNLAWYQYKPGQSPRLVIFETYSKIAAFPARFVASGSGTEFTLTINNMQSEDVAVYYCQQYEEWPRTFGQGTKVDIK" result="> 30 fold"
